Every entry's value here was drawn from ChEMBL document CHEMBL1140564.

target.under.test: Serine/threonine-protein kinase TBK1 (Homo sapiens)
Sequence (Q9UHD2 whole entry): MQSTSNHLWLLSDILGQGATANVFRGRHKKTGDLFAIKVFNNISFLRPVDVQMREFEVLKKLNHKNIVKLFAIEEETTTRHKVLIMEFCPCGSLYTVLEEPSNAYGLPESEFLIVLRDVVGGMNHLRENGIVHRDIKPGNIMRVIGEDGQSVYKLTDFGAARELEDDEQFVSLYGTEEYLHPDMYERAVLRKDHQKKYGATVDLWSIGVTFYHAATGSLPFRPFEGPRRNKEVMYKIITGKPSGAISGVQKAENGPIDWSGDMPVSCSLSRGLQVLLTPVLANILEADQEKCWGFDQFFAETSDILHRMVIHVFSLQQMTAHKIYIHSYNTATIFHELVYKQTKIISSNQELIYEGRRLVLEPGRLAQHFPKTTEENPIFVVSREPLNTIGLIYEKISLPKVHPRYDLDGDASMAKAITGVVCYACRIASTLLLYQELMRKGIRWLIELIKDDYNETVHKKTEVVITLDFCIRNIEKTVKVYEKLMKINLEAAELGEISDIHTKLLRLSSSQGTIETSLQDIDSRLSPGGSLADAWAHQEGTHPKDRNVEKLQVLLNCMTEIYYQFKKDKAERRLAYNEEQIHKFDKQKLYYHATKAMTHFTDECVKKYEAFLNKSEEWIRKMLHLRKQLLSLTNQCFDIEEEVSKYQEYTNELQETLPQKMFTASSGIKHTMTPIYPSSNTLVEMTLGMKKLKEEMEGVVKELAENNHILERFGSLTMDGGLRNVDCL
recorded.endpoint: Ki

- N#Cc1ncc2nc1OCCCCOc1cc(NCc3cncs3)c(Cl)cc1NC(=O)N2: > 1520 nM

---

target.under.test: Cyclin-dependent kinase 9 (Homo sapiens, UniProt P50750)
Sequence (P50750 whole entry): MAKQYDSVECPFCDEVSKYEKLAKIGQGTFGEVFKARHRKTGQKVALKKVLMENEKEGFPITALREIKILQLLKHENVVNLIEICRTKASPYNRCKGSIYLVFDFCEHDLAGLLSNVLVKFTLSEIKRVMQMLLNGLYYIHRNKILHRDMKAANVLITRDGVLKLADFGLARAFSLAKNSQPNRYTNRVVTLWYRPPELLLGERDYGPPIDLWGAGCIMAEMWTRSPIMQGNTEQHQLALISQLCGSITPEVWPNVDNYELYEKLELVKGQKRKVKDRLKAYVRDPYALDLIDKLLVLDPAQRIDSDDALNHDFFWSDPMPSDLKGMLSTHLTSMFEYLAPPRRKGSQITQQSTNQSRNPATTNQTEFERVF
recorded.endpoint: Ki

- N#Cc1ncc2nc1OCCCCOc1cc(NCc3cncs3)c(Cl)cc1NC(=O)N2: > 1.64 µM

---

experiment.description: Inhibition of AUR2
Design: species or system Homo sapiens
recorded.endpoint: Ki (nM)

* N#Cc1ncc2nc1OCCCCOc1cc(NCc3cncs3)c(Cl)cc1NC(=O)N2 | 1910

---

target.under.test: SRSF protein kinase 3 (Homo sapiens)
Sequence (Q9UPE1 whole entry): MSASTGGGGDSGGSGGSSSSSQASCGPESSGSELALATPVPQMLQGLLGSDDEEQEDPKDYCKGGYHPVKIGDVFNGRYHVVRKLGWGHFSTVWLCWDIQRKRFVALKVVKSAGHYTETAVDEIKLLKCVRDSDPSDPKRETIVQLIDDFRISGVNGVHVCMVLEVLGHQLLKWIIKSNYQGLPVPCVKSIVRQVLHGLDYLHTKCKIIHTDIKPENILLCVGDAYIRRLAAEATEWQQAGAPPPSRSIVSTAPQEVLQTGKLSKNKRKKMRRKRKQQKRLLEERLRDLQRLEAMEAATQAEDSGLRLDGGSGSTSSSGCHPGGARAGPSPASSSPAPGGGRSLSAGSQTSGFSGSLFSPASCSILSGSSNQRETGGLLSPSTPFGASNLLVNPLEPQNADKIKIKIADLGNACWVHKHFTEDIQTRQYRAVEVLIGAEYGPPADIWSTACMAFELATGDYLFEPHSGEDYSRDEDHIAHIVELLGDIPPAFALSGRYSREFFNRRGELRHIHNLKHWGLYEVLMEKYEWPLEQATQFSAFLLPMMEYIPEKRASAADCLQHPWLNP
pKi: −log10 of the molar value.
recorded.endpoint: pKi

* N#Cc1ncc2nc1OCCCCOc1cc(NCc3cncs3)c(Cl)cc1NC(=O)N2 | < 5.76

---

Tested on: NCI-H1299
experiment.description: Inhibition of doxorubicin-induced cell cycle arrest in H1299 cells at G2/M phase by FACS assay
Type: functional, cell-based
condition.description: Homo sapiens
// NB: equality with 500 nM counts as F; only EC50 strictly below is T

- N#Cc1ncc2nc1OC/C=C\COc1cc(OCCN3CCOCC3)c(Cl)cc1NC(=O)N2: F
- N#Cc1ncc2nc1OC/C=C\COc1cc(NCCO)c(Cl)cc1NC(=O)N2: F
- N#Cc1ncc2nc1OC/C=C\COc1cc(NCc3cncs3)c(Cl)cc1NC(=O)N2: T
- N#Cc1ncc2nc1OCCCCOc1cc(OCCCN3CCOCC3)c(Cl)cc1NC(=O)N2: F
- N#Cc1ncc2nc1OCCCCOc1cc(N)c(Cl)cc1NC(=O)N2: T
- CN(C)c1cc2c(cc1Cl)NC(=O)Nc1cnc(C#N)c(n1)OC/C=C\CO2: F
- CN(C)c1cc2c(cc1Cl)NC(=O)Nc1cnc(C#N)c(n1)OCCCCO2: F
- N#Cc1ncc2nc1OC/C=C\COc1cc(NC(=O)c3ccnc(Cl)c3)c(Cl)cc1NC(=O)N2: F
- CCN(CC)c1cc2c(cc1Cl)NC(=O)Nc1cnc(C#N)c(n1)OCCCCO2: F
- N#Cc1ncc2nc1OC/C=C\COc1cc(O)c(Cl)cc1NC(=O)N2: F
